- test_target: proton-coupled peptide transporter (Oryctolagus cuniculus)
- Construct: Xenopus laevis oocytes were injected with cRNA coding the proton-coupled peptide transporter; expressed in transfected cells; host or cells: Xenopus laevis oocytes injected with cRNA transcribed in vitro from the cloned cDNA
- Sequence (P36836 1-707): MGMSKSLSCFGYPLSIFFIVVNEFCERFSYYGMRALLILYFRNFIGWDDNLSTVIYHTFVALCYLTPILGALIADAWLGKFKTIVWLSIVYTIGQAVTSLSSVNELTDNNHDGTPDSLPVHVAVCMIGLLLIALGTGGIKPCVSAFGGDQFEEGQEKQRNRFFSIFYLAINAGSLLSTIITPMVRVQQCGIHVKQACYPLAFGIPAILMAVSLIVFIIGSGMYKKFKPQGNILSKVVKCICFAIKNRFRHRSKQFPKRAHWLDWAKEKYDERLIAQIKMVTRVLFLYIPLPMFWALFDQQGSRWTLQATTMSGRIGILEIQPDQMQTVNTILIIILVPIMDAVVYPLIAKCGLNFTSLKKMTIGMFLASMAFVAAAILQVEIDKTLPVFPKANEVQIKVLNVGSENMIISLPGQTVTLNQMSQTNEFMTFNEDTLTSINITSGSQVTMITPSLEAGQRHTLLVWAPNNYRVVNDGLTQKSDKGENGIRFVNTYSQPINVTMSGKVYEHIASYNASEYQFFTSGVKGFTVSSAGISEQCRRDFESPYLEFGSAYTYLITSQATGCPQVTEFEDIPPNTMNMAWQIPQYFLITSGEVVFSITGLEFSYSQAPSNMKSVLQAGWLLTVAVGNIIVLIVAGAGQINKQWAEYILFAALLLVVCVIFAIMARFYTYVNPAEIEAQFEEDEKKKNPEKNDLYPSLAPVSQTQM
- measurement_protocol: Two-electrode voltage clamp of Xenopus laevis oocytes injected with transporter cRNA: substrate-evoked inward currents and Km
- Assay type: cell-based, rabbit
- particulars: uptake solution pH 5.5
assay_endpoint: substrate-evoked inward current

compound="CC1=C(C(=O)O)N2C(=O)[C@@H](NC(=O)[C@H](N)c3ccc(O)cc3)[C@H]2SC1 [cefadroxil]" result_value="Significant currents"
compound="CC1=C(C(=O)O)N2C(=O)[C@@H](NC(=O)[C@H](N)C3=CCC=CC3)[C@H]2SC1 [cephradine]" result_value="Significant currents"
compound="CC(C)C[C@H](NC(=O)CN)C(=O)O [Glycyl-leucine]" result_value="inward current"
compound="CC1(C)S[C@@H]2[C@H](NC(=O)C3(N)CCCCC3)C(=O)N2[C@H]1C(=O)O [Cyclacillin]" result_value="inward current"

Cited source for all entries: patent US5849525A
